conditions: in ethanol, 293.2 K

- smiles-input: "CC(C)(C)NSc1nc2ccccc2s1"
  solubility (mole fraction): 0.0198

---

details: in isopropanol, 278.2 K

- smiles-input: "CC(C)(C)NSc1nc2ccccc2s1"
  solubility (mole fraction): 0.00938

---

details: in methanol, 288.2 K

- smiles-input: "CC(C)(C)NSc1nc2ccccc2s1"
  solubility (mole fraction): 0.00991

---

settings: in isopropanol, 283.2 K

- smiles-input: "CC(C)(C)NSc1nc2ccccc2s1"
  solubility (mole fraction): 0.0122

---

settings: in methanol, 308.2 K

- smiles-input: "CC(C)(C)NSc1nc2ccccc2s1"
  solubility (mole fraction): 0.0219
